target: Prostaglandin G/H synthase 2 (Homo sapiens) (UniProt P35354); conditions: Blood; at 10 µM
Sequence (P35354 whole entry): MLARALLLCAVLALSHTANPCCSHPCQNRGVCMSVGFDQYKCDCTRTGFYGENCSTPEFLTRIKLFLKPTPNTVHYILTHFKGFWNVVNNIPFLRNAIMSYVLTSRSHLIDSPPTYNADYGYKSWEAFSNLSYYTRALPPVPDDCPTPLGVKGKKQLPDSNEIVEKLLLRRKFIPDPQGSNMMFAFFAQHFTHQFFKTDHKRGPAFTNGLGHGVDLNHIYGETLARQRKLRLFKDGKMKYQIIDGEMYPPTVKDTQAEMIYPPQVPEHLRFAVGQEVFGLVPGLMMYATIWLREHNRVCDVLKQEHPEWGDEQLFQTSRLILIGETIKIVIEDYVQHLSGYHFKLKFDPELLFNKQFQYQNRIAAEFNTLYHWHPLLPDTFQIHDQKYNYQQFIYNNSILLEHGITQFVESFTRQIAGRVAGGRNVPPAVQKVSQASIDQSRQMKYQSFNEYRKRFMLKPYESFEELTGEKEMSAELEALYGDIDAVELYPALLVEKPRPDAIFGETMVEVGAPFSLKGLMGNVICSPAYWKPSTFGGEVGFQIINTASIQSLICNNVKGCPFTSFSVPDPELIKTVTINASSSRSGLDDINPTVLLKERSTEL
Description: Inhibition of Prostaglandin G/H synthase 2 (COX-2) in human whole blood at 10 uM
endpoint: inhibition (%)
Give bare numbers, in %.

The cases that follow already have their inhibition on record.
structurenotation=COc1ccc(-c2c(Cl)ncn2-c2ccc(S(C)(=O)=O)cc2)cc1F testedtarget="Prostaglandin G/H synthase 2 (Homo sapiens) (UniProt P35354)" endpoint=inhibition obsvalue=100
structurenotation=CS(=O)(=O)c1ccc(-n2cnc(Cl)c2-c2ccncc2)cc1 testedtarget="Prostaglandin G/H synthase 2 (Homo sapiens) (UniProt P35354)" endpoint=inhibition obsvalue=82.4
structurenotation=NS(=O)(=O)c1ccc(-n2cnc(Cl)c2-c2ccccc2)cc1 testedtarget="Prostaglandin G/H synthase 2 (Homo sapiens) (UniProt P35354)" endpoint=inhibition obsvalue=59.5
structurenotation=COc1ccc(-c2c(Cl)ncn2-c2ccc(S(C)(=O)=O)cc2)cc1Cl testedtarget="Prostaglandin G/H synthase 2 (Homo sapiens) (UniProt P35354)" endpoint=inhibition obsvalue=100
structurenotation=CS(=O)(=O)c1ccc(-n2cnc(Cl)c2-c2ccc(Cl)cc2)cc1 testedtarget="Prostaglandin G/H synthase 2 (Homo sapiens) (UniProt P35354)" endpoint=inhibition obsvalue=100
structurenotation=CS(=O)(=O)c1ccc(-n2c(-c3ccc(F)cc3)cnc2C(=O)c2ccccc2)cc1 testedtarget="Prostaglandin G/H synthase 2 (Homo sapiens) (UniProt P35354)" endpoint=inhibition obsvalue=0

# batch size: 4; output inhibition per entry
1. Cc1ccc(-c2c(Cl)ncn2-c2ccc(S(C)(=O)=O)cc2)cc1
2. C=CCc1ncn(-c2ccc(S(C)(=O)=O)cc2)c1-c1ccc(F)cc1
3. CS(=O)(=O)c1ccc(-n2c(CO)nc(Cl)c2-c2ccc(F)cc2)cc1
4. CS(=O)(=O)c1ccc(-n2cnc(Cl)c2-c2ccc3c(c2)CCO3)cc1

1. 100
2. 3.4
3. 2.4
4. 65.5

---

biological target: Prostaglandin G/H synthase 2 (Homo sapiens) (UniProt P35354); conditions: Blood; at 10 µM
Please respond with reported inhibition for every item in the list.
Numbers only, in %.

Here's what some known entries look like.
structurenotation=CS(=O)(=O)c1ccc(-n2cnc(Cl)c2-c2ccc(N)cc2)cc1 quantityunit=% obsvalue=71.6
structurenotation=CS(=O)(=O)c1ccc(-c2c(Br)ncn2-c2ccc(F)cc2)cc1 quantityunit=% obsvalue=36
structurenotation=CCOc1ccc(-c2c(Cl)ncn2-c2ccc(S(C)(=O)=O)cc2)cc1F quantityunit=% obsvalue=95.2
structurenotation=CS(=O)(=O)c1ccc(-c2cnc(C#N)n2-c2ccc(F)cc2)cc1 quantityunit=% obsvalue=100
structurenotation=CS(=O)(=O)c1ccc(-n2cnc(Cl)c2-c2ccccc2)cc1 quantityunit=% obsvalue=96
structurenotation=CCN(CC)c1ccc(-c2c(Cl)ncn2-c2ccc(S(C)(=O)=O)cc2)cc1 quantityunit=% obsvalue=100

Batch of 4 compounds: report inhibition for each.
1. Cc1nc(Cl)c(-c2ccc(F)cc2)n1-c1ccc(S(C)(=O)=O)cc1
2. CS(=O)(=O)c1ccc(-n2cnc(Cl)c2-c2ccccc2F)cc1
3. CCCCCc1ncn(-c2ccc(S(C)(=O)=O)cc2)c1-c1ccc(F)cc1
4. CS(=O)(=O)c1ccc(-c2cncn2-c2ccc(F)cc2)cc1

27.5
100
64.4
63.4

So what does the record say about inhibition for "Cc1ccc(-c2c(Cl)ncn2-c2ccc(S(C)(=O)=O)cc2)cc1F" ?
100
